Target: ECH1 Delta(3,5)-Delta(2,4)-dienoyl-CoA isomerase, mitochondrial (Homo sapiens)
Construct: isoTOP-ABPP experiments performed in cell lysates (in vitro); endogenous in cells; host or cells: soluble proteome of human cancer cell lines (MDA-MB-231, Ramos, Jurkat)
Sequence (Q13011 34-328): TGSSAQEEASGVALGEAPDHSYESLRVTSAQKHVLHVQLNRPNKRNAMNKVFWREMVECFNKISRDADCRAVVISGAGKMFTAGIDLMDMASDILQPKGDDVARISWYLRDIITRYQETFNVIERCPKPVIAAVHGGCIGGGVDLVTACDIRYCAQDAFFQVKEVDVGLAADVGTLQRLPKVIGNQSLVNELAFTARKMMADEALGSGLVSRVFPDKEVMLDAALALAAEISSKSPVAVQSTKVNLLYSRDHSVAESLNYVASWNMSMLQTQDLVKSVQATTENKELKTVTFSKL
Test: competitive isoTOP-ABPP
Assay type: binding
Design: key: R = MS1 peak area ratio, DMSO (heavy) / compound-treated (light); capped at 20
Conditions: 50 uM, 231 sol, in vitro
Lab note: compare isoTOP-ABPP reactivity ratio at lysine Q13011_K112 with 1, writing True if less and False if equal or more.

Past entries and their recorded results:
> print(dat)
                                   compound                                    target  assignedlabel
1  O=C(CN1C(=O)c2ccccc2C1=O)Oc1c(F)c(F)c(F)c(F)c1F  ECH1 Delta(3,5)-Delta(2,4)-dienoyl-CoA isomerase, mitochondrial (Homo sapiens)          False
2  COc1cc(CCC(=O)Oc2ccc([N+](=O)[O-])cc2[N+](=O)[O-])cc(OC)c1OC  ECH1 Delta(3,5)-Delta(2,4)-dienoyl-CoA isomerase, mitochondrial (Homo sapiens)           True
3  O=C(Oc1ccc([N+](=O)[O-])cc1[N+](=O)[O-])c1cc(C(F)(F)F)cc(C(F)(F)F)c1  ECH1 Delta(3,5)-Delta(2,4)-dienoyl-CoA isomerase, mitochondrial (Homo sapiens)          False

Is it true that isoTOP-ABPP reactivity ratio at lysine Q13011_K112 reported for O=C(Oc1ccc([N+](=O)[O-])cc1[N+](=O)[O-])C(c1ccccc1)c1ccccc1 [fragment 30, 2,4-Dinitrophenyl 2,2-diphenylacetate] is less than 1?
True

Field: below-cutoff. Rule: recorded isoTOP-ABPP reactivity ratio at lysine Q13011_K112 strictly less than 1. Subject: CCn1cc(C(=O)Oc2c(F)c(F)c(F)c(F)c2F)c(=O)c2ccc(C)nc21
False

State whether 1 exceeds isoTOP-ABPP reactivity ratio at lysine Q13011_K112 recorded for O=C(Oc1c(F)c(F)c(F)c(F)c1F)c1ccc2ccccc2n1 .
False

----------
Biological target: FAM136A Protein FAM136A (Homo sapiens, UniProt Q96C01)
Construct: isoTOP-ABPP experiments performed in cell lysates (in vitro); endogenous in cells; host or cells: soluble proteome of human cancer cell lines (MDA-MB-231; Ramos and Jurkat also prepared)
Sequence (Q96C01 whole entry): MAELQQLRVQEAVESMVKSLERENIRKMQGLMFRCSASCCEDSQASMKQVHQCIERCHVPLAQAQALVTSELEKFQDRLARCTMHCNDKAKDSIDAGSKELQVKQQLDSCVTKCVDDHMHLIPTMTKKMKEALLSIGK
Assay: competitive isoTOP-ABPP
Format: binding
Conditions: 50 uM_231_sol_in vitro
isoTOP-ABPP ratio, lysine Q96C01_K99 for assorted compounds
Give your answer as a number; write no unit.

> print(dat)
                                   compound                           measurename  obsvalue
1  O=C(Oc1c(F)c(F)c(C(F)(F)F)c(F)c1F)c1cc(C(F)(F)F)cc(C(F)(F)F)c1 [fragment 47]  isoTOP-ABPP ratio, lysine Q96C01_K99       0.7
2  O=C(Oc1c(F)c(F)cc(F)c1F)c1cc(C(F)(F)F)cc(C(F)(F)F)c1 [fragment 48]  isoTOP-ABPP ratio, lysine Q96C01_K99       5.5
3  O=C(CCc1ccc2c(c1)OCO2)Oc1ccc([N+](=O)[O-])cc1[N+](=O)[O-] [fragment 45]  isoTOP-ABPP ratio, lysine Q96C01_K99       1.0

Attention now shifts to the item below.
The reported FAM136A Protein FAM136A (Homo sapiens, UniProt Q96C01) isoTOP-ABPP ratio, lysine Q96C01_K99 of O=C(ON1C(=O)CCC1=O)c1cc(C(F)(F)F)cc(C(F)(F)F)c1 [fragment 46] is 0.6

----------
Target: PSME3 Proteasome activator complex subunit 3 (Homo sapiens)
Construct: isoTOP-ABPP experiments performed in cell lysates (in vitro); endogenous in cells; host or cells: soluble proteome of human cancer cell lines (MDA-MB-231, Ramos, Jurkat)
Sequence (P61289 whole entry, one chain of several): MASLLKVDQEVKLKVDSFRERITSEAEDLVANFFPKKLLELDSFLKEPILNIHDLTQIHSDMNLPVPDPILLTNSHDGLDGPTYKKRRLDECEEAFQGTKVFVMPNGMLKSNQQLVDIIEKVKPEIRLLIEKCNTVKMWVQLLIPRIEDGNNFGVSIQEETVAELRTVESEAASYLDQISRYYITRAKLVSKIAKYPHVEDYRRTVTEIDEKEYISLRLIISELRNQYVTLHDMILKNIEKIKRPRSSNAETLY
Test: competitive isoTOP-ABPP
Format: binding
Details: 50 uM_231_sol_in vitro
measureName: isoTOP-ABPP ratio, lysine P61289_K237

Documented isoTOP-ABPP ratio, lysine P61289_K237 of NC(=O)c1cc(C(F)(F)F)cc(C(F)(F)F)c1 [fragment 51, reference compound] : 0.7

In plain terms, O=C(CCc1ccc2c(c1)OCO2)Oc1ccc([N+](=O)[O-])cc1[N+](=O)[O-] has a documented isoTOP-ABPP ratio, lysine P61289_K237 of 1.6

What the record says about O=C(Oc1c(F)c(F)c(C(F)(F)F)c(F)c1F)c1cc(C(F)(F)F)cc(C(F)(F)F)c1 : isoTOP-ABPP ratio, lysine P61289_K237 is 0.9

According to the records, this compound O=C(ON1C(=O)CCC1=O)c1cc(C(F)(F)F)cc(C(F)(F)F)c1 displays isoTOP-ABPP ratio, lysine P61289_K237 of 0.9

----------
Target: GOLGB1 Golgin subfamily B member 1 (Homo sapiens)
Construct: isoTOP-ABPP experiments performed in cell lysates (in vitro); endogenous in cells; host or cells: soluble proteome of human cancer cell lines (MDA-MB-231, Ramos, Jurkat)
Sequence (Q14789 whole entry): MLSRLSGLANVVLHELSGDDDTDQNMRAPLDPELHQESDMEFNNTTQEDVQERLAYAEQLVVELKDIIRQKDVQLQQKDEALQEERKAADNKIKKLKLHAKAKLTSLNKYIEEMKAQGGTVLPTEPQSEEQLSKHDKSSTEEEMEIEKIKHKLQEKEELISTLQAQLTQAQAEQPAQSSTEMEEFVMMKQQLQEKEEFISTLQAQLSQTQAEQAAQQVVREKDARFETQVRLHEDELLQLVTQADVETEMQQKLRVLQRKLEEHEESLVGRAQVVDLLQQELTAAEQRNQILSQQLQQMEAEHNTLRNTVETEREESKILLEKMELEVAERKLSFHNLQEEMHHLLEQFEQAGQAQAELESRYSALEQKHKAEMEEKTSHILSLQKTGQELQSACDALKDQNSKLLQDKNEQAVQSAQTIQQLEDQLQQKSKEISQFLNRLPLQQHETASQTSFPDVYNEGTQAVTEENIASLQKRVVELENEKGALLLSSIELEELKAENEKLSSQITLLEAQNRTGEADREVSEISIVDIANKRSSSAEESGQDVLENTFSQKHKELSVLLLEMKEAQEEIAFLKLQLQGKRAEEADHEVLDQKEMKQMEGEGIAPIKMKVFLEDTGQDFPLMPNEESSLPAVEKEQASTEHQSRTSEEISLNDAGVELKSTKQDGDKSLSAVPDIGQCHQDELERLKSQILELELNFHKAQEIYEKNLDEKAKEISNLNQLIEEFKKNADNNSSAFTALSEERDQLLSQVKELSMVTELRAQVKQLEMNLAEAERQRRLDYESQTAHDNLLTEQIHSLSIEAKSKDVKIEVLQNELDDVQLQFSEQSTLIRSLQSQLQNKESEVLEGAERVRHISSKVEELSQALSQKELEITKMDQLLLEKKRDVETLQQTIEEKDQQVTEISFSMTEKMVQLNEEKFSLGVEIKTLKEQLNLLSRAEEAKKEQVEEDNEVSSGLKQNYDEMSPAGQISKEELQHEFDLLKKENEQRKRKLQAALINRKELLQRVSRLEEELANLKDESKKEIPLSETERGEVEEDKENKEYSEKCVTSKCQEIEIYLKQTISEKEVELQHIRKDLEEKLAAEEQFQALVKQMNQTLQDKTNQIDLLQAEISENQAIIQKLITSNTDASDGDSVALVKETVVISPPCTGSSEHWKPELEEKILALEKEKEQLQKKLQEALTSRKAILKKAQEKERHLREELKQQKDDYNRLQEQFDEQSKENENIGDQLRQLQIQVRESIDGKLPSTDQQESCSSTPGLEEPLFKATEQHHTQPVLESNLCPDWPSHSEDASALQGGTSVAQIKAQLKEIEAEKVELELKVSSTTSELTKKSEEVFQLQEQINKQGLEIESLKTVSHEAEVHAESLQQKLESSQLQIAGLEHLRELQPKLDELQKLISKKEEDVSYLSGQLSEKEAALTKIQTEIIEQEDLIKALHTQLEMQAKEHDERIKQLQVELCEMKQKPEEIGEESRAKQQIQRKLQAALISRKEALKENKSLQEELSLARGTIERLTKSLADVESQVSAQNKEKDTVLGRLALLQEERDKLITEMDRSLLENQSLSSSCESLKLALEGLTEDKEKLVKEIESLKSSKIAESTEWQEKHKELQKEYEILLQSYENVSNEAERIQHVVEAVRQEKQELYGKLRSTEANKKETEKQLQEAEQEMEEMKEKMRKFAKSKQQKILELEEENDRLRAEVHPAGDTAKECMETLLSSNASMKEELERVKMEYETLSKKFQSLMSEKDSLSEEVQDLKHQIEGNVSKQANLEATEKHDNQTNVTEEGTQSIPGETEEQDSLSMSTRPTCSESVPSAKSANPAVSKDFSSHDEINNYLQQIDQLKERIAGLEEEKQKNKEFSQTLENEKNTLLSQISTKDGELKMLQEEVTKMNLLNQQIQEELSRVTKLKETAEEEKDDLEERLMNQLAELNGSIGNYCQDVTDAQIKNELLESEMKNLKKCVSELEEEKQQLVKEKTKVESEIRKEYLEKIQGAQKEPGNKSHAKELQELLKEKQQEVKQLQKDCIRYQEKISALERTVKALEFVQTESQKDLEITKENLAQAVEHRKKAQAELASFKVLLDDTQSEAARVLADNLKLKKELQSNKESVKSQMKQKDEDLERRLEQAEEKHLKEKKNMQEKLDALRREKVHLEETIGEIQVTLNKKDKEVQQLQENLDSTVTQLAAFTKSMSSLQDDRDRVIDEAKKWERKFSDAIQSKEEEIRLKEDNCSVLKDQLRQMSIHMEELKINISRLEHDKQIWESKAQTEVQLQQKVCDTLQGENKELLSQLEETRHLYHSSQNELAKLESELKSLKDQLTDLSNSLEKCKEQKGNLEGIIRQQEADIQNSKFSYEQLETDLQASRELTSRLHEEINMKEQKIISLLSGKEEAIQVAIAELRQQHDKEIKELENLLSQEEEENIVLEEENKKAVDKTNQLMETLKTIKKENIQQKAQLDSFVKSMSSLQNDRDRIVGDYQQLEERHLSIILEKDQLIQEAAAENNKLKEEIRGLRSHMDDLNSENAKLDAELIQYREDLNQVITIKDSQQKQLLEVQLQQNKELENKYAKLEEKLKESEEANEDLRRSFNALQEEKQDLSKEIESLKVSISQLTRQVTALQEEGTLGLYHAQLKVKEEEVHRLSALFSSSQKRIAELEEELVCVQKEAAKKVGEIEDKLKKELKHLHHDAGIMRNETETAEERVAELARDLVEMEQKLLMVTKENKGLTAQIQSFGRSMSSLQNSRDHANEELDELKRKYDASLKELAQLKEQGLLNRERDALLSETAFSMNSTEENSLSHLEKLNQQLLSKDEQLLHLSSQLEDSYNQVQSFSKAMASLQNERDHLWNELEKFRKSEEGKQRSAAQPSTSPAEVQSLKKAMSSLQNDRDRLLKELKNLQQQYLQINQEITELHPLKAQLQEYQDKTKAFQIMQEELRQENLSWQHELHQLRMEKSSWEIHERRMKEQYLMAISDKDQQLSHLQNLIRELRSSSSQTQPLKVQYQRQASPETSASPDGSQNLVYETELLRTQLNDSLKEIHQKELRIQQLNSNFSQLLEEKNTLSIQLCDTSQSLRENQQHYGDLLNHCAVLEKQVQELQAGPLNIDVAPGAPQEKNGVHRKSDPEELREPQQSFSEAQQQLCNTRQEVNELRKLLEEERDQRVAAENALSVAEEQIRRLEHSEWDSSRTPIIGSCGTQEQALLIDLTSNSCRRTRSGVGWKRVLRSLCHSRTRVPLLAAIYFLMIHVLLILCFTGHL
Assay: competitive isoTOP-ABPP
Assay type: binding
Conditions: 50 uM_231_sol_in vitro
measureName: isoTOP-ABPP ratio, lysine Q14789_K103
Form: value (number only, do not type unit).

Known results for molecules:
> print(dat)
                                   molecule                            measurename  obsvalue
1  O=C(ON1C(=O)CCC1=O)c1cc(C(F)(F)F)cc(C(F)(F)F)c1  isoTOP-ABPP ratio, lysine Q14789_K103       1.2
2  O=C(CCc1ccc2c(c1)OCO2)Oc1ccc([N+](=O)[O-])cc1[N+](=O)[O-]  isoTOP-ABPP ratio, lysine Q14789_K103       1.0
3  NC(=O)c1cc(C(F)(F)F)cc(C(F)(F)F)c1 [fragment 51, reference compound]  isoTOP-ABPP ratio, lysine Q14789_K103       0.9
4  O=C(Oc1c(F)c(F)cc(F)c1F)c1cc(C(F)(F)F)cc(C(F)(F)F)c1  isoTOP-ABPP ratio, lysine Q14789_K103       1.1
5  O=C(Oc1c(F)c(F)c(C(F)(F)F)c(F)c1F)c1cc(C(F)(F)F)cc(C(F)(F)F)c1  isoTOP-ABPP ratio, lysine Q14789_K103       1.0

Record summary for N#Cc1ccc(C(=O)Oc2ccc([N+](=O)[O-])cc2[N+](=O)[O-])cc1 [fragment 44, 2,4-Dinitrophenyl 4-cyanobenzoate] : reported isoTOP-ABPP ratio, lysine Q14789_K103 = 0.9

----------
Molecular target: RQCD1 Cell differentiation protein RCD1 homolog (Homo sapiens, UniProt Q92600)
Construct: isoTOP-ABPP experiments performed in cell lysates (in vitro); endogenous in cells; host or cells: soluble proteome of human cancer cell lines (MDA-MB-231; Ramos and Jurkat also prepared)
Sequence (Q92600 whole entry): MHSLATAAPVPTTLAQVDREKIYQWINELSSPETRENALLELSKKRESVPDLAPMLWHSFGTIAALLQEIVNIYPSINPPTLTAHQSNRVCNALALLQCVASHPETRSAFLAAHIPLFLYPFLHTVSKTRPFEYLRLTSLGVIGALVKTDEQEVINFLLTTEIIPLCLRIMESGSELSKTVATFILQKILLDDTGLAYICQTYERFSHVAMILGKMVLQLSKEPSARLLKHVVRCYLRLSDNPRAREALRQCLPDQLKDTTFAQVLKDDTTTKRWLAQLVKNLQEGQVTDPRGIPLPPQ
Assay: competitive isoTOP-ABPP
Type: binding
Settings: 50 uM_231_sol_in vitro
Experimental: In vitro covalent fragment treatment for isoTOP-ABPP. All compounds were made up as solutions in DMSO (100×) and were used at a final concentration of 50 μM for activated esters and 100 μM for guanidinylating agents. […] R value calculation and processing. The ratios of light and heavy MS1 peaks for each unique peptide were quantified with a CIMAGE software using default parameters (3 MS1 acquisitions per peak and signal to noise threshold set to 2.5). […]
Classify by measured isoTOP-ABPP ratio, lysine Q92600_K230: condition met if it is equal to or exceeds 1, condition not met if it is smaller.

Example results:
> print(dat)
                                   molecule                                    target      assignedlabel
1  O=C(Oc1c(F)c(F)c(C(F)(F)F)c(F)c1F)c1cc(C(F)(F)F)cc(C(F)(F)F)c1  RQCD1 Cell differentiation protein RCD1 homolog (Homo sapiens, UniProt Q92600)  condition not met
2  O=C(ON1C(=O)CCC1=O)c1cc(C(F)(F)F)cc(C(F)(F)F)c1  RQCD1 Cell differentiation protein RCD1 homolog (Homo sapiens, UniProt Q92600)      condition met
3  NC(=O)c1cc(C(F)(F)F)cc(C(F)(F)F)c1 [fragment 51, reference compound]  RQCD1 Cell differentiation protein RCD1 homolog (Homo sapiens, UniProt Q92600)  condition not met

Please find the next molecule below.
Confirm if isoTOP-ABPP ratio, lysine Q92600_K230 reported for the molecule O=C(CCc1ccc2c(c1)OCO2)Oc1ccc([N+](=O)[O-])cc1[N+](=O)[O-] is 1 or above.
condition met

----------
Biological target: NLN Neurolysin, mitochondrial (Homo sapiens, UniProt Q9BYT8)
Construct: isoTOP-ABPP experiments performed in cell lysates (in vitro); endogenous in cells; host or cells: soluble proteome of human cancer cell lines (MDA-MB-231; Ramos and Jurkat also prepared)
Sequence (Q9BYT8 38-704): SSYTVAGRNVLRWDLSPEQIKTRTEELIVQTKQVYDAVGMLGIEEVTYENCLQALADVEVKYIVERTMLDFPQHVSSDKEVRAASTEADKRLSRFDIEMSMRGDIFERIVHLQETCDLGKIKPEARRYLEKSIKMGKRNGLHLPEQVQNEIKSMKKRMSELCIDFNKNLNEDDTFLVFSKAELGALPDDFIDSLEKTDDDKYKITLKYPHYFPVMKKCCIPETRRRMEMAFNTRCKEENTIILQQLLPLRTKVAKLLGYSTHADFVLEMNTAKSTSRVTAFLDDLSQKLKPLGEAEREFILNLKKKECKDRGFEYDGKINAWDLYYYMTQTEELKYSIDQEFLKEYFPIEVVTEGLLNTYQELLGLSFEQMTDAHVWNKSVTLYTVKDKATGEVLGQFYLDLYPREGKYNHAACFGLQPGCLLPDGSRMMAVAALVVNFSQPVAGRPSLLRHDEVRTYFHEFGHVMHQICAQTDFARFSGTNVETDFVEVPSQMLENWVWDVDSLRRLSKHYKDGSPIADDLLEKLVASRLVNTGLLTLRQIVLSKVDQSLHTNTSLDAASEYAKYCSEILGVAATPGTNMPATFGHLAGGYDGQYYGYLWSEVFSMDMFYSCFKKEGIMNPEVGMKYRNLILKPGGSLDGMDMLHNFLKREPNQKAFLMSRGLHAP
Experiment: competitive isoTOP-ABPP
Type: binding
Settings: 50 uM, 231 sol, in vitro
Procedure: In vitro covalent fragment treatment for isoTOP-ABPP. All compounds were made up as solutions in DMSO (100×) and were used at a final concentration of 50 μM for activated esters and 100 μM for guanidinylating agents. […] R value calculation and processing. The ratios of light and heavy MS1 peaks for each unique peptide were quantified with a CIMAGE software using default parameters (3 MS1 acquisitions per peak and signal to noise threshold set to 2.5). […]
Entries annotated with measured isoTOP-ABPP reactivity ratio at lysine Q9BYT8_K253
Lab note: write the figure by itself, no unit.

The cases that follow already have their isoTOP-ABPP reactivity ratio at lysine Q9BYT8_K253 on record.
> print(dat)
                                   compound  obsvalue
1  O=C(CCc1cn(-c2ccccc2)nc1-c1ccccc1)Oc1ccc([N+](=O)[O-])cc1[N+](=O)[O-]       1.0
2  O=C(CCc1coc2cc(F)ccc2c1=O)Oc1c(F)c(F)c(F)c(F)c1F       1.2

Quick note, isoTOP-ABPP reactivity ratio at lysine Q9BYT8_K253 for O=C(Oc1ccc([N+](=O)[O-])cc1[N+](=O)[O-])C(c1ccccc1)c1ccccc1 [fragment 30, 2,4-Dinitrophenyl 2,2-diphenylacetate] landed at 1.3

These entries and their values trace back to patent US20210255193A1.
